Taken from patent US10968225B2.

molecular target: mutant CFTR (Homo sapiens, UniProt P13569, DEL508-508); construct: expressed in transfected cells; experiment: Fluorescence (HS-YFP) assay for CFTR activity, corrector assay; type: cell-based; settings: CFBE41o- and FRT cells with stable expression of mutant CFTR, read-out: activity (EC50)
Sequence (P13569 with tags, fused parts or gaps DEL508-508): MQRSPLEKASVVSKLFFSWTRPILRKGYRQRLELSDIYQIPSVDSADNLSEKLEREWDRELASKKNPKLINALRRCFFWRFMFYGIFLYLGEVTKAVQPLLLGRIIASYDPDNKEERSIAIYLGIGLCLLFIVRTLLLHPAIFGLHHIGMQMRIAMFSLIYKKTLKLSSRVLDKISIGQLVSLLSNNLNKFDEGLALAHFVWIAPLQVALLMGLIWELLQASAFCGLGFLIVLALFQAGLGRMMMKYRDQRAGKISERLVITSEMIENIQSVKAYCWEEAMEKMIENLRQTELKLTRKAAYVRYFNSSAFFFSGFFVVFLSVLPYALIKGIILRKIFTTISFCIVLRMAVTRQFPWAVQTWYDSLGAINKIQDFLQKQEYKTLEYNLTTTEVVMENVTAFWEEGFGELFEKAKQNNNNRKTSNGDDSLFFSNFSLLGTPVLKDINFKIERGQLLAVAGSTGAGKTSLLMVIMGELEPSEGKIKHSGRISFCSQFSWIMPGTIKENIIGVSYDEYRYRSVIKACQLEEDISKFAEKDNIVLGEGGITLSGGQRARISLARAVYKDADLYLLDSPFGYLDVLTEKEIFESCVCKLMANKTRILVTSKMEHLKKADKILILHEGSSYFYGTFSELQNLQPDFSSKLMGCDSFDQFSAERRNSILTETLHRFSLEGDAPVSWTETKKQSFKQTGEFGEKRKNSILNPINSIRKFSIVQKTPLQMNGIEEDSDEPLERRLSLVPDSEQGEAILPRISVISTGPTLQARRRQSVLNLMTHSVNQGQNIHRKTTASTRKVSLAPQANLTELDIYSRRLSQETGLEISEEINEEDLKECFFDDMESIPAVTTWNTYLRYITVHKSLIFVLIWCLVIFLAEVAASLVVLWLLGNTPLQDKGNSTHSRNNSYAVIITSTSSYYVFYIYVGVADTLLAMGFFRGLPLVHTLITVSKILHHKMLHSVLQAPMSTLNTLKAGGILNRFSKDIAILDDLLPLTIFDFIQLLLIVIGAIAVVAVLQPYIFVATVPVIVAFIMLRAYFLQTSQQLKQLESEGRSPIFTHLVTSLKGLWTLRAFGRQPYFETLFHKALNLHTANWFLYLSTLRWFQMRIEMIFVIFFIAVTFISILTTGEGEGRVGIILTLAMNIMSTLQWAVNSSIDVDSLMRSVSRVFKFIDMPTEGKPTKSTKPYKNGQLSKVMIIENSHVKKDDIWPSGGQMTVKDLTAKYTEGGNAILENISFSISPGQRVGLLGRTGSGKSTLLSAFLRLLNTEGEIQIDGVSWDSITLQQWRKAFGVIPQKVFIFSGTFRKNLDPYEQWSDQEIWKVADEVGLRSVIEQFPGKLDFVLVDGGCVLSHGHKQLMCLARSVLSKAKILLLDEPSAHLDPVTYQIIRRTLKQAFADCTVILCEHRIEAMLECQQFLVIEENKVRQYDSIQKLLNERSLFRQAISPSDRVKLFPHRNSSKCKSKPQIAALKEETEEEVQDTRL
pEC50: −log10 of the molar value.
# reported pEC50; entries follow

Return value of pEC50 for input Cc1cc(OC2CCCc3c(C(F)(F)F)nn(-c4cccc(C(=O)N(C)c5ccc6c(c5)OC(F)(F)O6)c4)c32)ccc1C(=O)O (stereo not shown) , no commentary.
> 6.00

Quickly give me recorded pEC50 for CNC(=O)N1CCc2c(c(C(F)(F)F)nn2-c2cccc(C(=O)N(C)c3ccc4c(c3)OCO4)c2)C1
> 6.00

====

molecular target: mutant CFTR (Homo sapiens, UniProt P13569, DEL508-508); construct: expressed in transfected cells; assay: Fluorescence (HS-YFP) assay for CFTR activity, corrector assay; type: cell-based; settings: activity (EC50), CFBE41o- and FRT cells with stable expression of mutant CFTR
measurement type: EC50

compound	measurement type	meas value
CN(C(=O)c1cccc(-n2nc(C(F)(F)F)c3c2C[C@@H]2CC[C@H]3N2C)c1)c1ccc2c(c1)OCO2 (single isomer, unassigned)	EC50	1000 to 2000 nM

State, in one line, measured EC50 of CN(C(=O)c1cccc(-n2nc(C(F)(F)F)c3c2C[C@@H]2CC[C@H]3N2)c1)c1ccc2c(c1)OCO2 (single isomer, unassigned)
1000 to 2000 nM

====

molecular target: mutant CFTR (Homo sapiens, UniProt P13569, DEL508-508); construct: expressed in transfected cells; test: Fluorescence (HS-YFP) assay for CFTR activity, corrector assay; format: cell-based; details: CFBE41o- and FRT cells with stable expression of mutant CFTR, read-out: activity (EC50)
measurement type: EC50

Observe how each entry below is paired with its result.
compound	EC50
CN(C(=O)c1cccc(-n2nc(C(F)(F)F)c3c2CCCC3)c1)c1ccc2c(c1)OCO2	< 1 µM
CN(C(=O)c1cccc(-n2nc(C(F)(F)F)c3c2CCN(C(=O)Nc2ccccc2)C3)c1)c1ccc2c(c1)OCO2	< 1 µM
COc1cc(OC2CCCc3c(C(F)(F)F)nn(-c4cccc(C(=O)N(C)c5ccc6c(c5)OC(F)(F)O6)c4)c32)ccc1C(=O)O (stereo not drawn)	< 1 µM
CN(C(=O)c1cccc(-n2nc(C(F)(F)F)c3c2C[C@@H]2CC[C@H]3N2C2CCC2)c1)c1ccc2c(c1)OCO2 (single isomer, unassigned)	< 1 µM
CC(=O)N1CCc2c(c(C(F)(F)F)nn2-c2cccc(C(=O)N(C)c3ccc4c(c3)OCO4)c2)C1	< 1 µM
Cc1cc2ncc(N(C)C(=O)c3cccc(-n4nc(C(F)(F)F)c5c4[C@H](Oc4ccc(C(=O)O)cc4)CCC5)c3)cn2n1 (single isomer, unassigned)	< 1 µM
CN(C(=O)c1cccc(-n2nc(C(F)(F)F)c3c2C[C@@H]2CC[C@H]3N2C(=O)C(C)(C)C)c1)c1ccc2c(c1)OCO2 (single isomer, unassigned)	< 1 µM
COc1ncc(N(C)C(=O)c2cccc(-n3nc(C(F)(F)F)c4c3CCN(C(=O)C(C)(C)C)C4)c2)cn1	> 2 µM
Cc1n[nH]c(C)c1S(=O)(=O)N1[C@H]2CC[C@@H]1c1c(C(F)(F)F)nn(-c3cccc(C(=O)N(C)c4ccc5c(c4)OCO5)c3)c1C2 (single isomer, unassigned)	< 1 µM
Cc1nc2ncc(N(C)C(=O)c3cccc(-n4nc(C(F)(F)F)c5c4C(Oc4ccc(C(=O)O)cc4)CCC5)c3)cc2o1 (single isomer, unassigned) [Compound 287]	< 1 µM

Quickly give me recorded EC50 for Cc1nn(-c2cccc(C(=O)N(C)c3ccc4c(c3)OCO4)c2)c2c1CCCC2
1 to 2 µM

Report measured EC50; entry is CN(C(=O)c1cccc(-n2nc(C(F)(F)F)c3c2C(Oc2ccc(C(N)=O)cc2)CCC3)c1)c1ccc2c(c1)OC(F)(F)O2 (single isomer, unassigned) [Compound 285]
< 1 µM
